# Test system: OVCAR-4 ovarian
# Test description: NCI tumour cell line growth inhibition, 48 h
Assay metric: TGI

q: Using the record for "Cc1nc(N)c(N2CCN(C(=O)O)CC2)c(=O)[nH]1" , report its TGI.
a: > 100 µM

q: Another molecule to check: "COc1ccc(NC(=O)C(=O)c2c(O)c3ccc(O)cc3oc2=O)c([N+](=O)[O-])c1"
a: > 100 µM

q: Thanks! And CC(Nc1ncc2c(n1)-c1ccccc1OC2)C(=O)O (stereo unspecified) ?
a: > 100 µM

q: Note, next up: "O=c1[nH]c2nnc(COc3ccc(Cl)cc3Cl)n2nc1Cc1ccccc1"
a: > 100 µM

q: Same for "CCN(Cc1ccc(C)cc1)c1ccc(CO)c(Cl)c1"
a: 4.11 µM

q: Request: "Cn1c2c(c3ccccc31)CCN(CCCCN1CCCCC1)C2=O"
a: > 100 µM

q: Also "COc1ccccc1NC(=S)NN=C(C)c1cccc(C(C)=NNC(=S)Nc2ccccc2OC)n1" , if possible.
a: 74.3 µM

q: Same lookup for "COC(=O)/C=C1\C(=O)N(C(C)=O)c2ccc(Br)cc21" , please.
a: 25.9 µM

q: Now consider OC(c1ccc(F)cc1)C(F)(F)c1nc2ccccc2o1 (stereo unspecified) and answer again.
a: > 100 µM

q: What about this molecule? CC(N)C(Cc1ccc(Cl)cc1)c1ccc(Cl)cc1 (stereo unspecified)
a: 25.7 µM

---

# System: SF-539 CNS
# Test description: NCI tumour cell line growth inhibition, 48 h
Readings of GI50 for the listed compounds

- Entry smiles: "Cc1nc2ccc(Nc3nc(Cl)nc(N4CCOCC4)n3)cc2n1Cc1ccccc1"
  GI50: "14200 nM"
- Entry smiles: "O=c1c2c(=NCCN3CCCC3)cc3c(=O)n(CCCN4CCOCC4)c(=O)c4c(-c5ccc(CN6CCCC6)cc5)cc(c(O)n1CCCN1CCOCC1)c2c4-3"
  GI50: "61.7 nM"
- Entry smiles: "CC(=O)Nc1ccc2c(c1)C(c1ccccc1Cl)=Nc1c(n[nH]c1C)N2"
  GI50: "999 nM"

Now for another entry.
q: # get_value(readout='GI50', item= "C/C(=N\NC(=S)N1CCCCC1)c1ccccn1" )
a: 257 nM

---

# System: SNB-19 CNS
# Test description: NCI tumour cell line growth inhibition, 48 h
# maps each entry to its TGI

A selection of reference data follows.
- Compound: "COC[C@@H](N=C1NC(=O)/C(=C/c2ccc3ncccc3c2)S1)c1ccccc1"
  TGI: "> 25 µM"
- Compound: "CC(ON(C(c1ccccc1)C(C)C)C(C)(C)C)c1ccccc1 (stereo not given)"
  TGI: "35.9 µM"
- Compound: "COc1ccc(C2CC(c3cccc(Nc4ccnc5cc(Cl)ccc45)c3)=NN2C=O)cc1 (stereo not given)"
  TGI: "> 100 µM"

q: What does the record list as TGI for "COc1ccc(NC(=O)C(=O)c2c(O)c3ccc(O)cc3oc2=O)c([N+](=O)[O-])c1" ?
a: > 100 µM

q: Same read-out for CC#CC(O)(C(=O)OCCCN(C)C)C1CCCCC1 (stereo not given) ?
a: > 100 µM

---

Recorded measurements of GI50, one per entry
# Tested on: RXF 393 renal
# Test description: NCI tumour cell line growth inhibition, 48 h

Use the examples below as a reference point.
- Compound: "CC(N)C(Cc1ccc(Cl)cc1)c1ccc(Cl)cc1 (centres undefined)"
  GI50: "11.7 µM"
- Compound: "NS(=O)(=O)c1ccc(Nc2cc(-c3cccc(O)c3)[nH]n2)cc1"
  GI50: "> 25 µM"
- Compound: "O=C(CC(Cl)=C(Cl)Cl)Nc1ccccc1"
  GI50: "> 100 µM"

q: Consider the compound shown here: "Cc1cc2nc3c4cc(O)ccc4n(CCN(C)C)c3nc2cc1C" What is its recorded GI50?
a: 0.828 µM

---

# Test system: CCRF-CEM leukemia
# Test description: NCI tumour cell line growth inhibition, 48 h
We begin with a simple list: items and their reported GI50.

Guide cases for GI50, answers given:
- Compound: "COc1ccc(C2=N[C@@H](Cc3ccccc3)C(=O)Nc3ccsc32)cc1"
  GI50: "3.46 µM"
- Compound: "CCN1C(=S)N(c2ccccc2)C2NC(=S)N(/N=C/C=C/c3ccccc3OC)C21 (stereo not drawn)"
  GI50: "0.362 µM"

In the following, a different compound is considered.
q: For "O=C(Nc1ccc2[nH]nc(-c3ccncc3)c2c1)[C@@H]1CCN(CC(=O)N2CCN(c3ccc(-c4ncccn4)cc3)CC2)C1" , what is its reported GI50?
a: 5.49 µM

---

# Test system: ACHN renal
# Test description: NCI tumour cell line growth inhibition, 48 h; in the data active = GI50 below about 0.43 µM; inactive = the rest
One label from this list, please: 1.0 for active, 0.0 for inactive

Use the examples below as a reference point.
- Molecule: "CC(N)C(Cc1ccc(Cl)cc1)c1ccc(Cl)cc1 (stereo not drawn)"
  Target of assay: "ACHN renal"
  Assigned class: 0.0
- Molecule: "C=C1CC[C@@H]2[C@](C)(COC(C)=O)[C@H](OC(C)=O)CC[C@@]2(C)[C@@H]1CC(Nc1ccc(S(=O)(=O)NC(C)=O)cc1)C1=CCOC1=O (stereo partly drawn)"
  Target of assay: "ACHN renal"
  Assigned class: 0.0

Now take the following molecule into account.
q: Assay outcome for "C/C(=N\NC(=S)N1CCCCC1)c1ccccn1" : what was it?
a: 1.0

---

# Tested on: NCI-H226 lung
# Test description: NCI tumour cell line growth inhibition, 48 h
Each entry below carries its reported TGI.

// known answers, use as guide
- Compound: "CC(C)=CCC[C@@H](C)/C=C/C=C(\\C)C(=O)CC[C@@H]1CC[N@+]2(C)CCCC[C@H]12"
  Target of assay: "NCI-H226 lung"
  TGI: "> 100 µM"
- Compound: "Fc1cccc(COc2ccc(Nc3ncnc4sc(-c5cccs5)cc34)cc2Cl)c1"
  Target of assay: "NCI-H226 lung"
  TGI: "15.2 µM"
- Compound: "O=c1ccn(CC2(CO)CCC2)c(=O)[nH]1"
  Target of assay: "NCI-H226 lung"
  TGI: "> 100 µM"
- Compound: "O=c1[nH]c(Cc2ccccc2)nc2c1sc1nc3ccccc3n12"
  Target of assay: "NCI-H226 lung"
  TGI: "> 100 µM"
- Compound: "CCC(C)CCOC(=O)c1ccc(N=Cc2ccc(C=Nc3ccc(C(=O)OCCC(C)CC)cc3)cc2)cc1 (stereo not drawn)"
  Target of assay: "NCI-H226 lung"
  TGI: "> 100 µM"
- Compound: "COc1ccc(C(=O)C2=NON3OC23C(=O)c2ccc(OC)cc2)cc1 (stereo not drawn)"
  Target of assay: "NCI-H226 lung"
  TGI: "33.3 µM"
- Compound: "Cc1cc(NCCCCCCCCNc2cc(C)nc3cc(N)ccc23)c2ccc(N)cc2n1"
  Target of assay: "NCI-H226 lung"
  TGI: "93.3 µM"

Consider now this further compound.
q: Recorded TGI for "O=C(O)CCCC(=O)Nn1c(Cc2ccc(Cl)cc2)n[nH]c1=O" , please?
a: > 100 µM

---

# System: MDA-MB-231 breast
# Test description: NCI tumour cell line growth inhibition, 48 h
Collected TGI values appear next to each entry.
Give the value, in units of µM, as a plain number.

- Compound: "O=c1c2c(=NCCN3CCCC3)cc3c(=O)n(CCCN4CCOCC4)c(=O)c4c(-c5ccc(CN6CCCC6)cc5)cc(c(O)n1CCCN1CCOCC1)c2c4-3"
  TGI [µM]: 0.384
- Compound: "CCSCC1CC(O)(c2ccccc2)CC(c2ccc(F)cc2)O1 (stereo not drawn)"
  TGI [µM]: 4.39
- Compound: "CN(C)c1ccc(C=Nc2ccc(Oc3ccc(Cl)cc3)c(Cl)c2)cc1"
  TGI [µM]: 38.5

q: What does the record list as TGI for "COc1cc(/C=C\c2cc(OC)c(OC)c(OC)c2)cc(N/C=C\C(=O)c2ccc(OC(F)(F)F)cc2)c1OC" ?
a: 14.5

---

# Tested on: EKVX NSCLC
# Test description: NCI tumour cell line growth inhibition, 48 h
Entries and their measured TGI follow.

Known results for molecules:
- Molecule: "Cc1ccc(S(=O)(=O)NC(=O)NCCc2cnc[nH]2)cc1"
  Result: "> 100 µM"
- Molecule: "Nc1ccc2c(O)cc(=O)[nH]c2n1"
  Result: "> 100 µM"
- Molecule: "C/C(=C1/N=C(c2cc([N+](=O)[O-])ccc2Cl)N(c2cccc(C)c2)C1=O)c1cc2ccccc2oc1=O"
  Result: "> 100 µM"

Kindly review the next molecule as well.
q: Can you look up the measured TGI of "Cc1ccc(S(=O)(=O)OCCn2cnc3nc(NC(=O)c4ccccc4)[nH]c(=O)c32)cc1" for me?
a: > 100 µM
